experiment: Reversal of multidrug resistance in human AD10 cells assessed as increase in calcein accumulation at 25 ug/ml relative to control; assay type: functional
resultType: Activity (%)
// return numeric value only (unit: %, not printed)

Worked cases, answers included:
compound | observed
COc1ccc(CCN(C)CCCC(C#N)(c2ccc(OC)c(OC)c2)C(C)C)cc1OC (stereo not given) | 150
COc1cc(C(c2cc(OC)c3c(c2)OCO3)[C@@H]2COC(=O)[C@H]2C)cc(OC)c1O (stereo not given in full) | 107
COc1cc([C@@H](c2cc(OC)c3c(c2)OCO3)[C@@H]2COC(=O)[C@H]2C)cc(OC)c1OC [PEPEROMIN B] | 121

Exam item: Which Activity value is on record for COc1cc(C(c2cc(OC)c3c(c2)OCO3)[C@@H]2COC(=O)[C@H]2C)cc2c1OCO2 [PEPEROMIN A] ?
Marked response: 120

Exam item: # Activity lookup, item COc1cc(C(c2cc(OC)c3c(c2)OCO3)[C@@H]2CO[C@@H](O)[C@@H]2C)cc2c1OCO2
Marked response: 107

----------
system: HepG2; test: Cytotoxicity against human HepG2 cells; assay type: functional, cell-based
Listed molecules paired with reported IC50
All answers are understood in µM, so give the number only.

molecule | u | IC50
C=C1C(=O)OC[C@H]1C(c1cc(OC)c(O)c(OC)c1)c1cc(OC)c2c(c1)OCO2 (some centres undefined) | µM | 22.3

Continue with the molecule presented below.
Exam item: Looking for the measured IC50 of COc1cc(C(c2cc(OC)c3c(c2)OCO3)[C@@H]2CO[C@@H](O)[C@@H]2C)cc2c1OCO2 , can you help?
Marked response: 140

Numbers sourced from ChEMBL document CHEMBL1157945.
